The measured values listed here are drawn from patent US20240279318A1.

Please go through the items and note down their Affinity increase.
- target under test: T1, AFP158/HLA-A*02:01 complex (human)
- T1 construct: flowed over the chip in SPR; also called AFP158 pro
- method: SPR, KD ratio to AS170036 VL1VH1;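 note: crude scFv captured on a sensor chip, peptide–HLA complex passed over at several concentrations, association then buffer dissociation, KD derived from on- and off-rates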
The reply should contain only the number, in fold.

Exam item: What does the record list as Affinity increase for LE32Y (scFv, AS170036 VL1VH1 scFv mutein) scFv: QSALTQPRSVSGSPGQSVTISCAGTSSDVGSYNYVSWYQQHPGKAPKLMIYQVNKRASGVPDRFSGSKSGNTASLTISGLQAEDEADYYCASYRSSDHNIVFGGGTKLTVLGGGGSGGGGSGGGGSEVQLVESGGGLVQPGGSLRLSCAASGFTFSSYAMSWVRQAPGKGLEWVSTINSGTGSPYYADSVKGRFTISRDNSKNTLYLQMNSLRAEDTAVYYCAKNFFDGSWFLGPPAMDYWGQGTLVTVSSHHHHHH ?
Marked response: 0.6

Exam item: What does the record list as Affinity increase for LD97R (scFv, AS170036 VL1VH1 scFv mutein) scFv: QSALTQPRSVSGSPGQSVTISCAGTSSDVGSENYVSWYQQHPGKAPKLMIYQVNKRASGVPDRFSGSKSGNTASLTISGLQAEDEADYYCASYRSSRHNIVFGGGTKLTVLGGGGSGGGGSGGGGSEVQLVESGGGLVQPGGSLRLSCAASGFTFSSYAMSWVRQAPGKGLEWVSTINSGTGSPYYADSVKGRFTISRDNSKNTLYLQMNSLRAEDTAVYYCAKNFFDGSWFLGPPAMDYWGQGTLVTVSSHHHHHH ?
Marked response: 0.5

Exam item: What does the record list as Affinity increase for LD97S (scFv, AS170036 VL1VH1 scFv mutein) scFv: QSALTQPRSVSGSPGQSVTISCAGTSSDVGSENYVSWYQQHPGKAPKLMIYQVNKRASGVPDRFSGSKSGNTASLTISGLQAEDEADYYCASYRSSSHNIVFGGGTKLTVLGGGGSGGGGSGGGGSEVQLVESGGGLVQPGGSLRLSCAASGFTFSSYAMSWVRQAPGKGLEWVSTINSGTGSPYYADSVKGRFTISRDNSKNTLYLQMNSLRAEDTAVYYCAKNFFDGSWFLGPPAMDYWGQGTLVTVSSHHHHHH ?
Marked response: 0.6

Exam item: What does the record list as Affinity increase for LE32G (scFv, AS170036 VL1VH1 scFv mutein) scFv: QSALTQPRSVSGSPGQSVTISCAGTSSDVGSGNYVSWYQQHPGKAPKLMIYQVNKRASGVPDRFSGSKSGNTASLTISGLQAEDEADYYCASYRSSDHNIVFGGGTKLTVLGGGGSGGGGSGGGGSEVQLVESGGGLVQPGGSLRLSCAASGFTFSSYAMSWVRQAPGKGLEWVSTINSGTGSPYYADSVKGRFTISRDNSKNTLYLQMNSLRAEDTAVYYCAKNFFDGSWFLGPPAMDYWGQGTLVTVSSHHHHHH ?
Marked response: 0.7

Exam item: What does the record list as Affinity increase for LY93M (scFv, AS170036 VL1VH1 scFv mutein) scFv: QSALTQPRSVSGSPGQSVTISCAGTSSDVGSENYVSWYQQHPGKAPKLMIYQVNKRASGVPDRFSGSKSGNTASLTISGLQAEDEADYYCASMRSSDHNIVFGGGTKLTVLGGGGSGGGGSGGGGSEVQLVESGGGLVQPGGSLRLSCAASGFTFSSYAMSWVRQAPGKGLEWVSTINSGTGSPYYADSVKGRFTISRDNSKNTLYLQMNSLRAEDTAVYYCAKNFFDGSWFLGPPAMDYWGQGTLVTVSSHHHHHH ?
Marked response: 1.1

Exam item: What does the record list as Affinity increase for LH98W (scFv, AS170036 VL1VH1 scFv mutein) scFv: QSALTQPRSVSGSPGQSVTISCAGTSSDVGSENYVSWYQQHPGKAPKLMIYQVNKRASGVPDRFSGSKSGNTASLTISGLQAEDEADYYCASYRSSDWNIVFGGGTKLTVLGGGGSGGGGSGGGGSEVQLVESGGGLVQPGGSLRLSCAASGFTFSSYAMSWVRQAPGKGLEWVSTINSGTGSPYYADSVKGRFTISRDNSKNTLYLQMNSLRAEDTAVYYCAKNFFDGSWFLGPPAMDYWGQGTLVTVSSHHHHHH ?
Marked response: 1.2

Exam item: What does the record list as Affinity increase for LD97K (scFv, AS170036 VL1VH1 scFv mutein) scFv: QSALTQPRSVSGSPGQSVTISCAGTSSDVGSENYVSWYQQHPGKAPKLMIYQVNKRASGVPDRFSGSKSGNTASLTISGLQAEDEADYYCASYRSSKHNIVFGGGTKLTVLGGGGSGGGGSGGGGSEVQLVESGGGLVQPGGSLRLSCAASGFTFSSYAMSWVRQAPGKGLEWVSTINSGTGSPYYADSVKGRFTISRDNSKNTLYLQMNSLRAEDTAVYYCAKNFFDGSWFLGPPAMDYWGQGTLVTVSSHHHHHH ?
Marked response: 0.6

Exam item: What does the record list as Affinity increase for LH98V (scFv, AS170036 VL1VH1 scFv mutein; also called AS170036 VL1VH1-VLH98V) scFv: QSALTQPRSVSGSPGQSVTISCAGTSSDVGSENYVSWYQQHPGKAPKLMIYQVNKRASGVPDRFSGSKSGNTASLTISGLQAEDEADYYCASYRSSDVNIVFGGGTKLTVLGGGGSGGGGSGGGGSEVQLVESGGGLVQPGGSLRLSCAASGFTFSSYAMSWVRQAPGKGLEWVSTINSGTGSPYYADSVKGRFTISRDNSKNTLYLQMNSLRAEDTAVYYCAKNFFDGSWFLGPPAMDYWGQGTLVTVSSHHHHHH ?
Marked response: 3.2

Exam item: What does the record list as Affinity increase for LY93V (scFv, AS170036 VL1VH1 scFv mutein) scFv: QSALTQPRSVSGSPGQSVTISCAGTSSDVGSENYVSWYQQHPGKAPKLMIYQVNKRASGVPDRFSGSKSGNTASLTISGLQAEDEADYYCASVRSSDHNIVFGGGTKLTVLGGGGSGGGGSGGGGSEVQLVESGGGLVQPGGSLRLSCAASGFTFSSYAMSWVRQAPGKGLEWVSTINSGTGSPYYADSVKGRFTISRDNSKNTLYLQMNSLRAEDTAVYYCAKNFFDGSWFLGPPAMDYWGQGTLVTVSSHHHHHH ?
Marked response: 0.5
